STUDY_TARGET: Human α2δ-1 subunit of Cav2.2 calcium channel (Homo sapiens, UniProt P54289)
Sequence (P54289 25-1103): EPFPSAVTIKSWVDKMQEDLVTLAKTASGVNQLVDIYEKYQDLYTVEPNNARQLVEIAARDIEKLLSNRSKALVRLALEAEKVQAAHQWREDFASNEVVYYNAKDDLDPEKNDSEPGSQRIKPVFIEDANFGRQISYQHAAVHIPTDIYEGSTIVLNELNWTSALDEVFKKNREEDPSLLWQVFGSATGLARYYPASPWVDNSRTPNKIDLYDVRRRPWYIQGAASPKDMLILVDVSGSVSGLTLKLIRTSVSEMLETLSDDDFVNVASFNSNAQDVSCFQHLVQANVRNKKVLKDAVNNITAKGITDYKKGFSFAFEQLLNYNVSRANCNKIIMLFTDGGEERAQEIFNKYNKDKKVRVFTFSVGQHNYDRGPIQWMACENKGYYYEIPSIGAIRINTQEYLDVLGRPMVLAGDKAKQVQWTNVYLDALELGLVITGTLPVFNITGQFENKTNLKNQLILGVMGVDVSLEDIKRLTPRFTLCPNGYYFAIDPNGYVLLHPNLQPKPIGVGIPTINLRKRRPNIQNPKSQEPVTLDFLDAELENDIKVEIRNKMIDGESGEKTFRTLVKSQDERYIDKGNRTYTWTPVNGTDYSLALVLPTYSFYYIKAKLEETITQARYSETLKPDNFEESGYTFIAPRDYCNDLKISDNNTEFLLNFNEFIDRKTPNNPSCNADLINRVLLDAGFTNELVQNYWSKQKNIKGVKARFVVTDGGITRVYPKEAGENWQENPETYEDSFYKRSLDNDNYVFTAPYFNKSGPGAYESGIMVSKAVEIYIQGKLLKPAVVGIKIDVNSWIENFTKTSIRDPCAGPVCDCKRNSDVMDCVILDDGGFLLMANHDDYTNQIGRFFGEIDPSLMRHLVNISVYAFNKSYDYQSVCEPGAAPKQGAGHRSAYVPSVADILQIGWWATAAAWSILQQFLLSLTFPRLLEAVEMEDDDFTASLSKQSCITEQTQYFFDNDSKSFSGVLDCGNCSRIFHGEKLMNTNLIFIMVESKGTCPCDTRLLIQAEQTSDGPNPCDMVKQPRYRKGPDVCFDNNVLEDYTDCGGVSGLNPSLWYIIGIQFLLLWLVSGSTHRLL
EXPERIMENTAL_PROTOCOL: Human α2δ-1 subunit of Cav2.2 calcium channel assay, [3H]-Gabapentin binding
PROTOCOL_CONDITIONS: human α2δ-1 enriched membranes, 15 nM [3H]-Gabapentin; Ki as class symbol
Ki by entry:
METRIC_NAME: Ki

CCOc1ccc(-n2nc3c(N(C)Cc4cnc[nH]4)nnc(C)c3c2C)c(F)c1 [Example 24]	100 to 500 nM
CCOc1ccc(-n2nc3c(N(C)Cc4ccccc4O)nnc(C)c3c2C)c(F)c1 [Example 23]	100 to 500 nM
CCOc1ccc(-n2nc3c(N(C)Cc4ccncn4)nnc(C)c3c2C)c(F)c1 [Example 36]	100 to 500 nM
CCOc1ccc(-n2nc3c(NCCC(O)c4ccccc4)nnc(C)c3c2C)c(F)c1 (centres unmarked) [Example 7]	100 to 500 nM
CCOc1ccc(-n2nc3c(N(C)Cc4cscn4)nnc(C)c3c2C)c(F)c1 [Example 29]	100 to 500 nM
CCOc1ccc(-n2nc3c(NCCC4(c5ccccn5)CCOC5(CCCC5)C4)nnc(C)c3c2C)c(F)c1 (centres unmarked) [Example 59]	≥ 5000 nM
CCOc1ccc(-n2nc3c(N(C)Cc4ccccc4CNC)nnc(C)c3c2C)c(F)c1 [Example 43]	500 to 5000 nM
CCOc1ccc(-n2nc3c(N(CCO)Cc4ccncc4)nnc(C)c3c2C)c(F)c1 [Example 53]	≥ 5000 nM
